Reference for the values: patent US20260069656A1

assay_name: Intact half-life during simulated gastric fluid (SGF) digestion
experimental_setup: SGF pH 1.5, pepsin:polypeptide 1:20 w/w, 37° C.; produced in E. coli unless otherwise noted
Here the recorded SGF Half-life (t½) is given for each entry.
measured_metric: SGF Half-life (t½) (s)

- molecule: "SEQID-00502: protein of the 168 nutritive polypeptide library (protein, Glycine max, protein of the 168 nutritive polypeptide library) MASQSNTKSVHDFTVKDARGNNVNLADYKGKVLLIVNVASQCGLTNSNYTELNQLYEKYKGKGLEILAFPCNQFGAQEPGTNEEIVEFACTRFKAEFPIFDKVDVNGDNAAPLYKFLKSSKGGLFGDSIKWNFSKFLVDKDGNVVDRYAPTTSPLSIEKDIKKLLDA"
  measured_metric: "SGF Half-life (t½)"
  endpoint_value: 36
- molecule: "SEQID-00241: nutritive polypeptide (protein, listed as Bos taurus) SELKKDIDDLELTLAKVEKEKHATENKVKNLTEEMAGLDETIAKLTKEKKALQEAHQQTLDDLQAEEDKVNTLTKAKTKLEQQVDDLEGSLEQEKKLRMDLERAKRKLEGDLKLA"
  measured_metric: "SGF Half-life (t½)"
  endpoint_value: 18
- molecule: "SEQID-00510: nutritive polypeptide naturally produced in Turkey, recombinantly expressed in E. coli (protein, Meleagris gallopavo, nutritive polypeptide naturally produced in Turkey, recombinantly expressed in E. coli) MVPIAEKMAEKQEEPSNTQNGEPDNAEEGEGKKKKKVKREDLPPFEIVTGERLPAIFFKFQFRNVEYSSGRNKTFLCYVVETQGKESTTSRGYLEDEHAASHAEIAFFNTILPKCESSLRYNITWYVSSSPCVTCADRISETLRKNKNLRLTIMVGRLFMWEEPEMQAALKKMKSAGCKLRIMKPQDFEYVWQNFVEQEEGEEAKAFVPWEDIQENFQYYEEKLAEILQ"
  measured_metric: "SGF Half-life (t½)"
  endpoint_value: 18
- molecule: "SEQID-00341: nutritive polypeptide (protein, listed as Saccharomyces cerevisiae, strain ATCC 204508 / S288c) MSTSREDSVYLAKLAEQAERYEEMVENMKTVASSGQELSVEERNLLSVAYKNVIGARRASWRIVSSIEQKEESKEKSEHQVELICSYRSKIETELTKISDDILSVLDSHLIPSATTGESKVFYYKMKGDYHRYLAEFSSGDAREKATNASLEAYKTASEIATTELPPTHPIRLGLALNFSVFYYEIQNSPDKACHLAKQAFDDAIAELDTLSEESYKDSTLIMQLLRDNLTLWTSDMSESGQAEDQQQQQQHQQQQPPAAAEGEAPK"
  measured_metric: "SGF Half-life (t½)"
  endpoint_value: 12
- molecule: "SEQID-00287: nutritive polypeptide (protein, listed as Saccharomyces cerevisiae, strain ATCC 204508 / S288c, nutritive polypeptide) LVLGALLDTSHKFRNLDKDLCEKCAKCISMIGVLDVTKHEFKRTTYSENEVYDLNDSVQTIKFLIWVINDILV"
  measured_metric: "SGF Half-life (t½)"
  endpoint_value: 180
